experimental-target: 11-beta-hydroxysteroid dehydrogenase 1 (Mus musculus, UniProt P50172)
Sequence (P50172 whole entry): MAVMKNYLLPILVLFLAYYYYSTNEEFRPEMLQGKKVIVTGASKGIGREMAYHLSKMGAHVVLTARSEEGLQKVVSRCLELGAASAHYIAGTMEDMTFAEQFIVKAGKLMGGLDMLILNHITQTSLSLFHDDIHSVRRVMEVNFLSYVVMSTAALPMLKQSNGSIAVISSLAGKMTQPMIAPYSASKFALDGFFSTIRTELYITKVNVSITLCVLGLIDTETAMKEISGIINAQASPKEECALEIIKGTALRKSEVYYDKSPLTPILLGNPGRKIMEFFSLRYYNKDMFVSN
test-protocol: Inhibition of mouse 11beta-HSD1
IC50 under 20 nM gets yes (1), anything at or over 20 nM gets no (0).

Example entries and their recorded answers appear below.
Field: below-cutoff. Rule: recorded IC50 strictly less than 20 nM. Subject: `N#Cc1c2c(c(-c3ccccc3)[nH]c1=O)CCCC2` no (0)

Field: below-cutoff. Rule: recorded IC50 strictly less than 20 nM. Subject: `N#Cc1c(O)nc(SCc2ccccc2Cl)c2c1CCN(Cc1ccccc1)C2` no (0)

Field: below-cutoff. Rule: recorded IC50 strictly less than 20 nM. Subject: `N#Cc1c(O)nc(SCc2ccccc2-c2ccccc2)c2c1CCCC2` no (0)

Field: below-cutoff. Rule: recorded IC50 strictly less than 20 nM. Subject: `N#Cc1c(O)nc(SCCc2ccccc2Cl)c2c1CCCC2` yes (1)

Field: below-cutoff. Rule: recorded IC50 strictly less than 20 nM. Subject: `N#Cc1ncccc1CSc1nc(O)c(C#N)c2ccc(F)cc12` no (0)

---
Field: below-cutoff. Rule: recorded IC50 strictly less than 20 nM. Subject: `N#Cc1c(=O)[nH]c(SCc2ccccc2Cl)c2ccc(F)cc12` yes (1)

Field: below-cutoff. Rule: recorded IC50 strictly less than 20 nM. Subject: `Oc1cc2c(c(SCc3ccccc3Cl)n1)CCCC2` no (0)

Field: below-cutoff. Rule: recorded IC50 strictly less than 20 nM. Subject: `N#Cc1ccc(F)c(CSc2nc(O)c(C#N)c3c2CCCC3)c1` yes (1)

Field: below-cutoff. Rule: recorded IC50 strictly less than 20 nM. Subject: `N#Cc1c(O)nc(SCc2ccccc2Cl)c2ccccc12` yes (1)

Field: below-cutoff. Rule: recorded IC50 strictly less than 20 nM. Subject: `N#Cc1c(O)nc(OCc2ccccc2Cl)c2c1CCCC2` yes (1)

Field: below-cutoff. Rule: recorded IC50 strictly less than 20 nM. Subject: `N#Cc1c(=O)[nH]c(OCc2ccccc2Cl)c2cc(F)ccc12` no (0)

Field: below-cutoff. Rule: recorded IC50 strictly less than 20 nM. Subject: `N#Cc1c(O)nc(SCC2CCC2)c2c1CCCC2` no (0)
